Where these numbers come from: the supplement of paper PMC12764529

Each record here notes measured folding stability dG unfold.
protocol-notes: folding stability dG unfold (combined trypsin and chymotrypsin); higher = more stable

These recorded examples may help you get a feel for the data.
residue-codes: EPEYVVFVDINPVFTRVDENGNVLEEFPRKVPYTGPGKDPEKVREELEREYGPPVKILKTLPKSEVDAGLLS [r1_493_JUSTAS]
recorded-result: < -1 kcal/mol
--
residue-codes: SAGGPKVEIVDITVTEEEVNGKKKKTVTVKVKLENGETLTITMSEEELKKLGLSVEEIAKKLAKKLKSAGGS [r16_625_TrROS_Hall]
recorded-result: 2.09 kcal/mol
--
residue-codes: SAGGDNIDVERHPHPNNMYMFSITIPPDYPLKIRYPNGPKHEIPIPDPNATIHFMFPPDEPIEIEIYPSAGG [r13_82_TrROS]
recorded-result: 1.2 kcal/mol
--
residue-codes: SAGGSAGGSAGGWKTISVNELQDILREEGKPMTADDLIEDPNIKVEENPGNGMPTIEIPPSAGGSAGGSAGG [r7_180_TrROS]
recorded-result: -0.77 kcal/mol
--
residue-codes: SAGGSAGGSAGGKKIRFYFPNGNPVELTEILDVDPEDKWARIDVEHNGKKHKHPMPADDLSAGGSAGGSAGG [r7_236_TrROS]
recorded-result: < -1 kcal/mol

Indicate the recorded folding stability dG unfold value for this sequence: SAGGSAGGMPVSVEIELTVPTSPDETPEEALERIREELAPLGVEEVTATPLPDGTVRFRITVPRSAGGSAGG [r6_882_JUSTAS]
0.961 kcal/mol

In one line, give reported folding stability dG unfold of the entry SSSSMKTITLEKKITSPEEAEALREELLKKGYEVEVKVYPHPDSYIAKITVTIEVPPPPLSPTNPSALLKSA [r9_863_JUSTAS] .
0.967 kcal/mol
